Where do the numbers come from? From ChEMBL document CHEMBL3507680.

// reported cytotoxicity at 70.5 h for each item listed
Assay: Human HepG2 cell viability assay in 384 well format
Format: toxicity, cell-based
Design: dose 125 nL, time 70.5 hour; concentration not given beside the values
Settings: HepG2 cells, read-out: Inhibition
# number only, unit % dropped from output

INSERT INTO assay_data (molecule, reported_metric, endpoint_result) VALUES
  ('CCOc1ncccc1NC(=O)N1CCC(CN2CCOCC2)CC1', 'cytotoxicity at 70.5 h', -3.11),
  ('COCCNC(=O)C[C@@H]1COC[C@H]2CN(CC3CCOCC3)C[C@@H]12', 'cytotoxicity at 70.5 h', 1.35),
  ('COC(=O)CN(Cc1ccccc1C)C(=O)CCNC(=O)C(C)(C)C', 'cytotoxicity at 70.5 h', -6.72),
  ('CCOC(=O)N1CCN(C(=O)c2sc(-c3ccncc3)nc2C)CC1', 'cytotoxicity at 70.5 h', 23.5);

Now take the following molecule into account.
Return reported cytotoxicity at 70.5 h; argument: `CSc1ccc(CNC2(c3ccc(F)cc3)CCOCC2)cc1`
-3.89
